Reported Inotropic Selectivity: Change in heart rate obtained at dP/dt75 values are given for each entry in this list.
System: anesthetized, open-chested dogs
Test: Inotropic, chronotropic and pressor/depressor activities in anesthetized, open-chested dogs (Walton-Brodie strain gauge, ventricular and aortic catheters)
Type: in vivo
Conditions: at the dose giving 75% increase in left ventricular dP/dt; means ± SEM
Description: The following tests were conducted: • In anesthetized, open-chested dogs, instrumented with a Walton-Brodie strain gauge to measure cardiac contractile force, a ventricular catheter to measure left ventricular dP/dt and an aortic catheter to measure diastolic blood pressure and heart rate. Contractile force and L.V. dP/dt are indices of cardiac contractility and provide information on the inotropic state of the heart. […]
Unit BPM implied. Number only.

Consider the compound shown here: NCCc1ccc(O)c(O)c1 What is its recorded Inotropic Selectivity: Change in heart rate obtained at dP/dt75?
5

Please report the recorded Inotropic Selectivity: Change in heart rate obtained at dP/dt75 for NC1CCc2cc(O)c(O)cc2C1 (stereo not drawn) .
-12

Sample CC(CCc1ccc(O)cc1)NC1CCc2cc(O)c(O)cc2C1 (stereo not drawn) — what was its Inotropic Selectivity: Change in heart rate obtained at dP/dt75?
0

----------
Each entry below lists one item and its recorded ED (150% increase) value.
tested on: anesthetized, open-chested dogs; assay: Inotropic, chronotropic and pressor/depressor activities in anesthetized, open-chested dogs (Walton-Brodie strain gauge, ventricular and aortic catheters); type: in vivo; conditions: Canis lupus familiaris; dose required to produce 150% increase in left ventricular dP/dt; means ± SEM; read-out: Inotropic Potency dP/dt150
Report the figure in mg/kg without appending any unit label.

Some molecules with known ED (150% increase) results, for comparison:
CC(CCc1ccc(O)cc1)NCCc1ccc(O)c(O)c1 (racemic)
0.004
CC(CCc1ccc(O)cc1)NC1CCc2cc(O)c(O)cc2C1 (centres unmarked)
0.359
NCCc1ccc(O)c(O)c1
0.0237
CC(C)NCC(O)c1ccc(O)c(O)c1 (centres unmarked)
0.00014

We next turn to a different molecule, shown below.
Find the measured ED (150% increase): item COc1cc2c(cc1OC)CC(NC(C)CCc1ccc(O)cc1)CC2 (centres unmarked) , target or system anesthetized, open-chested dogs.
0.756

----------
test system: anesthetized, open-chested dogs; experiment: Inotropic, chronotropic and pressor/depressor activities in anesthetized, open-chested dogs (Walton-Brodie strain gauge, ventricular and aortic catheters); type: in vivo; conditions: Canis lupus familiaris; dose required to produce 50% increase in cardiac contractile force (CF); means ± SEM; read-out: Inotropic Potency CF50
Recorded ED50 values for a group of compounds are listed next.
Output spec: scalar in mg/kg, unitless text.

CC(CCc1ccc(O)cc1)NCCc1ccc(O)c(O)c1 (racemic)
0.0014

Lab note: need ED50 with anesthetized, open-chested dogs for entry NCCc1ccc(O)c(O)c1 , please look it up.
0.0091

Form field - read-out: ED50; system: anesthetized, open-chested dogs; submitted item: CC(CCc1ccc(O)cc1)NC1CCc2cc(O)c(O)cc2C1 (stereo not shown)
0.0563

Value wanted: ED50 (anesthetized, open-chested dogs) of entry COc1cc2c(cc1OC)CC(NC(C)CCc1ccc(O)cc1)CC2 (stereo not shown)
0.158

----------
test system: anesthetized, open-chested dogs; test: Inotropic, chronotropic and pressor/depressor activities in anesthetized, open-chested dogs (Walton-Brodie strain gauge, ventricular and aortic catheters); format: in vivo; conditions: at the dose giving 50% increase in cardiac contractile force; means ± SEM
QUANTITY: Inotropic Selectivity: Change in heart rate obtained at CF50 (BPM)
Number only, in BPM; omit the unit.

Guide cases for Inotropic Selectivity: Change in heart rate obtained at CF50, answers given:
CC(CCc1ccc(O)cc1)NC1CCc2cc(O)c(O)cc2C1 (stereo not drawn)
-17
CC(C)NCC(O)c1ccc(O)c(O)c1 (stereo not drawn)
14
CC(CCc1ccc(O)cc1)NCCc1ccc(O)c(O)c1 (racemic)
3
NCCc1ccc(O)c(O)c1
5

Any idea what Inotropic Selectivity: Change in heart rate obtained at CF50 was measured for NC1CCc2cc(O)c(O)cc2C1 (stereo not drawn) ?
-12

# lookup: Inotropic Selectivity: Change in heart rate obtained at CF50 of COc1cc2c(cc1OC)CC(NC(C)CCc1ccc(O)cc1)CC2 (stereo not drawn)
5

----------
tested on: anesthetized, open-chested dogs; assay: Inotropic, chronotropic and pressor/depressor activities in anesthetized, open-chested dogs (Walton-Brodie strain gauge, ventricular and aortic catheters); type: in vivo; details: at the dose giving 100% increase in cardiac contractile force; means ± SEM
QUANTITY: Cardioselectivity: Change in diastolic blood pressure obtained at CF100 (mm Hg)
Kindly answer with a numeric value in mm Hg, unit omitted.

Examples with their reported Cardioselectivity: Change in diastolic blood pressure obtained at CF100 follow.
CC(C)NCC(O)c1ccc(O)c(O)c1 (stereo not drawn)
-15
COc1cc2c(cc1OC)CC(NC(C)CCc1ccc(O)cc1)CC2 (stereo not drawn)
-27

Find the recorded Cardioselectivity: Change in diastolic blood pressure obtained at CF100 belonging to CC(CCc1ccc(O)cc1)NCCc1ccc(O)c(O)c1 (racemic) and report it.
4

I would be grateful if you could share the reported Cardioselectivity: Change in diastolic blood pressure obtained at CF100 for NCCc1ccc(O)c(O)c1 .
-12

// returns reported Cardioselectivity: Change in diastolic blood pressure obtained at CF100 for input CC(CCc1ccc(O)cc1)NC1CCc2cc(O)c(O)cc2C1 (stereo not drawn)
57

If you can, please state the reported Cardioselectivity: Change in diastolic blood pressure obtained at CF100 value of NC1CCc2cc(O)c(O)cc2C1 (stereo not drawn) .
61

----------
Cardioselectivity: Change in diastolic blood pressure obtained at dP/dt75: recorded values
tested on: anesthetized, open-chested dogs; test: Inotropic, chronotropic and pressor/depressor activities in anesthetized, open-chested dogs (Walton-Brodie strain gauge, ventricular and aortic catheters); assay type: in vivo; conditions: at the dose giving 75% increase in left ventricular dP/dt; means ± SEM

# Cardioselectivity: Change in diastolic blood pressure obtained at dP/dt75 lookup, item COc1cc2c(cc1OC)CC(NC(C)CCc1ccc(O)cc1)CC2 (stereo not drawn)
-23 mm Hg

I am curious: what Cardioselectivity: Change in diastolic blood pressure obtained at dP/dt75 value has been reported for CC(C)NCC(O)c1ccc(O)c(O)c1 (stereo not drawn) ?
-6 ± 2 mm Hg

Request the reported Cardioselectivity: Change in diastolic blood pressure obtained at dP/dt75 associated with CC(CCc1ccc(O)cc1)NC1CCc2cc(O)c(O)cc2C1 (stereo not drawn)
37 mm Hg

Consider the molecule CC(CCc1ccc(O)cc1)NCCc1ccc(O)c(O)c1 (racemic) and give its measured Cardioselectivity: Change in diastolic blood pressure obtained at dP/dt75.
4 ± 1 mm Hg

Record request: Cardioselectivity: Change in diastolic blood pressure obtained at dP/dt75 value, item NCCc1ccc(O)c(O)c1
-20 ± 7 mm Hg

Returns the measured Cardioselectivity: Change in diastolic blood pressure obtained at dP/dt75 for the input molecule. Input: NC1CCc2cc(O)c(O)cc2C1 (stereo not drawn)
30 + 5 mm Hg

----------
Examples of compounds with documented Inotropic Selectivity: Change in heart rate obtained at dP/dt75 follow.
system: anesthetized, open-chested dogs; assay: Inotropic, chronotropic and pressor/depressor activities in anesthetized, open-chested dogs (Walton-Brodie strain gauge, ventricular and aortic catheters); assay type: in vivo; settings: at the dose giving 75% increase in left ventricular dP/dt; means ± SEM
# number only, unit BPM dropped from output

For orientation, consider the following solved cases.
CC(C)NCC(O)c1ccc(O)c(O)c1 (stereo not drawn)
14
COc1cc2c(cc1OC)CC(NC(C)CCc1ccc(O)cc1)CC2 (stereo not drawn)
10

Look up Inotropic Selectivity: Change in heart rate obtained at dP/dt75 for this compound: CC(CCc1ccc(O)cc1)NCCc1ccc(O)c(O)c1 (racemic)
3
